Record form. Attribute: log10(Ki). Fill in for each entry.
Protein target, amino acids: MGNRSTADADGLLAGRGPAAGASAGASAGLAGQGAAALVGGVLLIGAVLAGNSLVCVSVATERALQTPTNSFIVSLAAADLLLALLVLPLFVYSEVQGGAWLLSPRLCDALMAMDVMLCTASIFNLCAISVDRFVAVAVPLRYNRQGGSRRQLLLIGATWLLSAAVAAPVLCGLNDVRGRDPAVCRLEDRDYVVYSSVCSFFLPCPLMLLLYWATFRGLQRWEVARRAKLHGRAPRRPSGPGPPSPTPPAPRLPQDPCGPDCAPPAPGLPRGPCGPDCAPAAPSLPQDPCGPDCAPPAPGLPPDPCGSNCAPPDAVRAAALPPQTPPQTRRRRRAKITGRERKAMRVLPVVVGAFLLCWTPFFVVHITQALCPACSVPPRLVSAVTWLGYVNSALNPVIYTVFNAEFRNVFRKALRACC
A difference of one corresponds to tenfold Ki; all values are log10 with Ki in µM.

Below are worked cases with known answers.
COc1ccc(-c2cc(CCCCN3CCN(c4ccccc4)CC3)on2)c(OC)c1; -1.12
c1ccc(-c2cc(CCCCN3CCN(c4ccccc4)CC3)on2)cc1; -0.27
O=[N+]([O-])c1cccc(-c2cc(CCCCN3CCN(C(c4ccccc4)c4ccccc4)CC3)on2)c1; 0.36
c1ccc(-c2cc(CCCCN3CCN(C(c4ccccc4)c4ccccc4)CC3)on2)cc1; 0.35

Here is another compound to look at.
**Q:** Entry Fc1ccccc1N1CCN(CCCCc2cc(/C=C/c3ccccc3)no2)CC1 has what log10(Ki)?
**A:** -1.24

----------
# assay system: D(4) dopamine receptor (Homo sapiens)
# experiment: biochemical
# Description: Displacement of the radioligand [3H]spiperone from the cloned human dopamine receptor D4 expressed in CHO cells
pKi: −log10 of the molar value.
Record true whenever pKi is at 7 or higher; record false when lower.

CCOc1ccccc1N1CCN(CCCCc2cc(-c3cccs3)no2)CC1; true

Could you now look at the following compound, please?
**Q:** Hello, I need to know if COc1ccccc1N1CCN(CCCCc2cc(-c3ccc(F)cc3)no2)CC1 has measured pKi not below 7. Thanks!
**A:** true

----------
Target protein (sequence): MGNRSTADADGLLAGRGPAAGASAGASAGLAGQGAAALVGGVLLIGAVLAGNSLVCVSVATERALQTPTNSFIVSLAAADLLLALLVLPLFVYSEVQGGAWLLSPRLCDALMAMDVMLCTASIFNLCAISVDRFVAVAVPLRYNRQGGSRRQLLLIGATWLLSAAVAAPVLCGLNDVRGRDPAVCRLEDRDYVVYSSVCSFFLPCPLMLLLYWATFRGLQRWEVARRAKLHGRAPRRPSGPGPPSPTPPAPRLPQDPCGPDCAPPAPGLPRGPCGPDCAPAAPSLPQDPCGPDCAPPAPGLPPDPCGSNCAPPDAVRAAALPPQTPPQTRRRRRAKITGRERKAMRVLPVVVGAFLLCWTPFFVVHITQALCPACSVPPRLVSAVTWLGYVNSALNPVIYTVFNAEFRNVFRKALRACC
Would you kindly list log10 Ki for each of these compounds?
Record value = log10 of Ki given in nM.

Guide cases for log10 Ki, answers given:
Fc1ccc(-c2cc(CCCCN3CCN(c4ccccc4)CC3)on2)cc1; 1.98
COc1ccccc1N1CCN(CCCCc2cc(-c3cccs3)no2)CC1; 1.32
COc1ccccc1N1CCN(CCCCc2cc(/C=C/c3ccccc3)no2)CC1; 1.94
Cc1ccccc1N1CCN(CCCCc2cc(-c3ccccc3)no2)CC1; 2.83

Please state, for each entry, its recorded log10 Ki.
1. COc1ccc(-c2cc(CCCCN3CCN(c4ccccc4OC)CC3)on2)cc1OC
2. Fc1ccc(-c2cc(CCCCN3CCN(C(c4ccccc4)c4ccccc4)CC3)on2)cc1
3. COc1ccccc1N1CCN(CCCCc2cc(-c3cccc([N+](=O)[O-])c3)no2)CC1
4. COc1ccc(-c2cc(CCCCN3CCN(c4ccccc4C)CC3)on2)cc1OC

**A:**
1. 2.41
2. 3.13
3. 1.70
4. 2.62
